test system: NCI-H460 lung; test: NCI-60 one-dose screen, 48 h (100 = growth as untreated, 0 = no growth, -100 = all killed); details: 10 µM unless noted
About 83,000 compounds went through this panel and 20% of them were active in at least one assay; those are over-represented in the sample as a whole.
MEASUREMENT NAME: growth (%)
State just the number; it will be interpreted in %.

Solved cases (4 shown):
CC(=O)C(C(C)=O)c1nc2sc3cc(Cl)ccc3n2c(=N)c1C#N : 95.2
C=C1C(=O)O[C@H]2[C@H]1CC/C(COC(=O)/C=C\C(=O)NCc1ccc(Cn3c(=O)sn(CCCC)c3=O)cc1)=C\CC[C@@]1(C)O[C@@H]21 : -54.3
Cc1cc2c(F)c(Oc3ncnc(Nc4ccc(N5C[C@@H](C)N[C@@H](C)C5)cc4)c3C#N)cc(F)c2[nH]1 : 6.38
C[C@H]1[C@H](C)CC[C@]2(C(=O)N3CCN(C)CC3)CC[C@]3(C)C(=CC[C@@H]4[C@@]5(C)C/C(=C/c6cccnc6)C(=O)C(C)(C)[C@@H]5CC[C@]43C)[C@H]12 : -65.1

# compound Cc1c(C(=O)O)nnn1-c1nccs1 ; its growth = 98.5

Sample CC(=O)NCC(=O)Nc1ccc(-c2nnc3ccccn23)nc1.CC(=O)NCC(=O)Nc1ccc(-c2nnc3ccccn23)nc1.[Pt+2] ; growth observed: 99.6

The value of growth measured for the compound COc1cc(NC(=O)c2cccc(-c3cc(=O)c4c(O)c(OC)c(OC)cc4o3)c2)cc(OC)c1OC turned out to be 53.8

Lab note: CC[C@]1(O)C[C@H]2CN(CCc3c([nH]c4ccccc34)[C@@](C(=O)OC)(c3cc4c(cc3OC)N(C=O)[C@H]3[C@@](O)(C(=O)OC)[C@H](OC(C)=O)[C@]5(CC)C=CCN6CC[C@]43[C@@H]65)C2)C1 gave growth of -2.68

Entry CC1=CC(=O)C(C(C)C)=CC1=Nc1cc(Br)c(O)c(Br)c1 — recorded growth = 5.15

For record O=C(Nc1ccccc1Cl)OCCN1CCOCC1 the listed growth is 109

Sample Fc1ccc(Nc2ccc3cc(OCCCN4CCOCC4)ccc3n2)cc1F ; growth observed: 36.6

Measured growth of COc1cc2nc(Nc3ccc(F)cc3)nc(N)c2cc1OC : 99.5

Just so you know, measured growth for CCN(CCO)CC(=O)c1cc(Cl)cc(Cl)c1Cl came out at 105

Query C=CC(=O)Nc1cccc(C)c1Nc1cc(-c2cccnc2Cc2c(C)c(OC)cc(OC)c2C)ncn1 yields growth of 4.5

Consider COc1ccc(Nc2ncc(Br)c(NCCCNC(=O)C3CCC3)n2)cc1 . Its measured growth is 19.4

Entry C=C(C)[C@@H]1CC[C@@]2(C(=O)O)CC[C@]3(C)C(CCC4[C@@]5(C)CCC(OS(=O)(=O)c6ccccc6)C(C)(C)C5CC[C@]43C)C12 (stereo partly specified) , growth reported as 42.3

The reported value for COc1ccc(-n2ncn(CCCCCCn3cnn(-c4ccc(OC)cc4)c3=O)c2=O)cc1 in terms of growth is 103

Data point: COc1ccc(O)c(-c2cc(-c3ccccc3)c(C#N)c(=O)[nH]2)c1 ; growth = 92.5

Record summary for CN(C)CN1CCN(c2ccc3nc(-c4ccc5nc(-c6ccc(C(F)(F)F)cc6)[nH]c5c4)[nH]c3c2)CC1 : reported growth = 10.6

response.value for CN(C)CCCCNc1ccc(NCCCCN(C)C)c2c1C(=O)c1c(O)ccc(O)c1C2=O (field: growth) = -79.1

Briefly, growth measured for Nc1ccc(S(=O)(=O)Nc2ccsc2-c2nc(-c3ccccc3)no2)cc1 : 40.1

The measured growth associated with CCN(CC)c1ccc(Nc2ccc(CC(=O)c3ccccc3)cc2)cc1 reads 96.3

Please fill in: growth reported for CNC(=O)NCC1OC(n2cnc3c(NC(=O)Nc4ccccc4)ncnc32)C2OC(C)(C)OC12 (stereo unspecified) = 101

The measured growth associated with CCOC(=O)C1C(=O)C=C(c2cnccn2)CC1c1ccc(OC)c(OC)c1 (stereo unspecified) reads 114

Reported growth ( C=C(C=O)[C@@H]1CC=C(C=O)CC1 ) = -16.6

So, C=C1C(=O)O[C@H]2[C@H]1CC/C(COC(=O)/C=C\C(=O)NCc1ccc(Cn3c(=O)sn(-c4ccc(Cl)cc4)c3=O)cc1)=C\CC[C@@]1(C)O[C@@H]21 ? Its growth was -73.2
